Data provenance is patent US9783505B2.

Parameter IC50: see the listing below.
Target: His-PKC-theta (Homo sapiens)
Construct: His; purchased Invitrogen
Experiment: PKC-theta Assay (384-well time resolved fluorescence, IMAP TR-FRET)
Assay type: biochemical
Settings: read-out: Act. Level (IC50 in the PKC-theta Assay)

COMPOUND: C[C@@H]1CC[C@@H](Nc2nc(NCc3cncnc3OCC(C)(F)F)ncc2C#N)C[C@H]1O
VALUE: 100 to 800 nM
--
COMPOUND: CC1(C)C[C@H](Nc2nc(NCCc3c[nH]c4ccncc34)ncc2C#N)CC[C@@H]1O
VALUE: 2000 to 10000 nM

Need IC50 of CC1(C)[C@@H](O)C[C@H]1Nc1nc(NCCc2cnoc2)ncc1C#N , thanks.
2000 to 10000 nM

Need IC50 of CC(F)(F)COc1ncncc1CNc1ncc(C#N)c(N[C@H]2C[C@@H](O)C2(C)C)n1 , thanks.
100 to 800 nM

Need IC50 of CC1(C)C[C@H](Nc2nc(NCc3cncnc3OCCC(F)(F)F)ncc2C(F)(F)F)CC[C@@H]1O , thanks.
< 100 nM

Need IC50 of CC1(C)[C@H](O)C[C@@H]1Nc1nc(NCc2cnccc2C(F)(F)F)ncc1C(F)(F)F , thanks.
100 to 800 nM

---

Target: His-PKC-theta (Homo sapiens, UniProt Q04759)
Construct: His; purchased Invitrogen
Sequence (Q04759 whole entry): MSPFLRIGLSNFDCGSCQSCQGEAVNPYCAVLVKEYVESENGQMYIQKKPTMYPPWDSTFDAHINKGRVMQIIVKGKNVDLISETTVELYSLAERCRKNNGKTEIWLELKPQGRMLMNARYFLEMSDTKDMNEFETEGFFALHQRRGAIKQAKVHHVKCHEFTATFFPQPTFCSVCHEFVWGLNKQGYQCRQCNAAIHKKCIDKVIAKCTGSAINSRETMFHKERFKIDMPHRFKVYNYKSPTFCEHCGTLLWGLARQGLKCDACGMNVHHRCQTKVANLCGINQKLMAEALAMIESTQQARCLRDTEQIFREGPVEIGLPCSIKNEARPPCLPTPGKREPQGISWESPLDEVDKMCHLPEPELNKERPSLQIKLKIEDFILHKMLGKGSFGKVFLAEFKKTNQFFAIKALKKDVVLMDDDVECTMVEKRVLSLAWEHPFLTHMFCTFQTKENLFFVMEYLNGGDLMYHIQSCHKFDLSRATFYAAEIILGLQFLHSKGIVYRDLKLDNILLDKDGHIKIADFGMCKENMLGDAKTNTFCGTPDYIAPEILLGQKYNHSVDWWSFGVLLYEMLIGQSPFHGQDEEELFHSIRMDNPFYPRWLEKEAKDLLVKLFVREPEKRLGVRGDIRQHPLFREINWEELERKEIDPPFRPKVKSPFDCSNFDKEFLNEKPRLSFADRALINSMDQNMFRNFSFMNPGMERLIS
Experiment: PKC-theta Assay (384-well time resolved fluorescence, IMAP TR-FRET)
Type: biochemical
Conditions: read-out: Act. Level (IC50 in the PKC-theta Assay)
pIC50: −log10 of the molar value.
Parameter pIC50: see the listing below.

MOLECULE: COC1CC(Nc2nc(NCc3cnccc3C(F)(F)F)ncc2C(F)(F)F)C1(C)C (stereo not shown) [Cmpd 74]
EXPERIMENTAL_TARGET: His-PKC-theta (Homo sapiens, UniProt Q04759)
VALUE: > 7.00
--
MOLECULE: CC1(C)[C@@H](Nc2nc(NCCC3C(=O)Nc4cc(F)ccc43)ncc2C#N)CCC[C@@H]1O (stereo partly shown)
EXPERIMENTAL_TARGET: His-PKC-theta (Homo sapiens, UniProt Q04759)
VALUE: 5.70 to 6.10
--
MOLECULE: CC1(C)[C@H](O)CCC[C@H]1Nc1nc(NCCC2C(=O)Nc3ccc(F)cc32)ncc1C#N (stereo partly shown)
EXPERIMENTAL_TARGET: His-PKC-theta (Homo sapiens, UniProt Q04759)
VALUE: 6.10 to 7.00

API: the following record is the query input.
Need pIC50 of CCc1ncncc1CNc1ncc(C#N)c(N[C@H]2C[C@H](O)C2(C)C)n1 , thanks.
5.70 to 6.10

---

Biological target: His-PKC-theta (Homo sapiens)
Construct: His; purchased Invitrogen
Test: PKC-theta Assay (384-well time resolved fluorescence, IMAP TR-FRET)
Format: biochemical
Conditions: Table 2; read-out: Act. Level (IC50 in the PKC-theta Assay)
Parameter IC50: see the listing below.

Consider the reported IC50 for these compounds:
COMPOUND: Cc1nnnn1-c1ccc(CCNc2ncc(C#N)c(N[C@@H]3CCC[C@@](C)(O)C3)n2)cc1
IC50: 2 to 10 µM
//
COMPOUND: N#Cc1cnc(NCc2ccccc2Cl)nc1N[C@H]1CC[C@@H](O)CC1
IC50: 0.1 to 0.8 µM

Need IC50 of COc1ccccc1CCNc1ncc(C#N)c(N[C@@H]2C[C@H](O)C2(C)C)n1 , thanks.
0.1 to 0.8 µM

Need IC50 of CC1(C)C[C@H](Nc2nc(NCCc3cccc(C#N)c3)ncc2C#N)CC[C@@H]1O , thanks.
0.8 to 2 µM
